- tgt: A. baumannii PBP2 (Acinetobacter baumannii, UniProt D0C8Z9)
- Construct: made in house
- Sequence (D0C8Z9 whole entry): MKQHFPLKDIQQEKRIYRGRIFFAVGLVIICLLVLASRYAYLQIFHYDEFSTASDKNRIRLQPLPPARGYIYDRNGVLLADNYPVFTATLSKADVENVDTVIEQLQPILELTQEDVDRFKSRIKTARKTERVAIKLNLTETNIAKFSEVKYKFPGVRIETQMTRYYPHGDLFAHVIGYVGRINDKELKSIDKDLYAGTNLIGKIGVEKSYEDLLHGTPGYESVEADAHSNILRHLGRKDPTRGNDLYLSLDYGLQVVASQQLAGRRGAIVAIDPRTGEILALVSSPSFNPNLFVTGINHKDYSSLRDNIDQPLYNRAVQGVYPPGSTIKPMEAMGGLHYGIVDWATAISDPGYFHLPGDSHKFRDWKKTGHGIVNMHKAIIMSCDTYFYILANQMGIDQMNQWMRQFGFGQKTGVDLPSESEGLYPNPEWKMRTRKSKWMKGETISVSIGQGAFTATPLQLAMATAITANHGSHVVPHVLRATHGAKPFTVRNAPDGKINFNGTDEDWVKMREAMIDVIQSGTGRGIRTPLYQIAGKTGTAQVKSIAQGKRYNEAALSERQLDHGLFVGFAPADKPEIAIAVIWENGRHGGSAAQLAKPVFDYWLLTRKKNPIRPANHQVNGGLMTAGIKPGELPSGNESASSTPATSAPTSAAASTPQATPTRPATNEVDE
- method: Bocillin-FL fluorescence polarization competition binding assay, A. baumannii PBP2
- Source text: Example I: Experimental Method for Penicillin-Binding Protein Binding Assays with Bocillin-FL Via Fluorescence Polarization […]
pEC50: −log10 of the molar value.
metric.name: pEC50

molecule="CC1(C)S[C@@H]2[C@H](/N=C/N3CCCCCC3)C(=O)N2[C@H]1C(=O)O [mecillinam, reference compound]" meas_value=6.40

====

- System: P. aeruginosa (ΔmexAB-oprM)
- method: Broth microdilution MIC in CAMHB
- Format: cell-based
- condition.details: Pseudomonas aeruginosa, read-out: Minimum Inhibitory Concentration, P. aeruginosa ΔmexAB-OprM
metric.name: MIC

compound="CCN1CCN(C(=O)NC(C(=O)N[C@H]2Cc3cccc(C(=O)O)c3OB2O)c2ccc(O)cc2O)C(=O)C1=O (stereo partly drawn) [Example 69]" metric_name=MIC meas_value="32 to 64 µg/mL"
compound="NCCN1CCN(C(=O)NC(C(=O)N[C@H]2Cc3cccc(C(=O)O)c3OB2O)c2c(F)cc(NS(N)(=O)=O)cc2F)C(=O)C1=O (stereo partly drawn) [Example 177]" metric_name=MIC meas_value="32 to 64 µg/mL"
compound="NCCCN1CCN(C(=O)N[C@@H](C(=O)N[C@H]2Cc3cccc(C(=O)O)c3OB2O)c2ncc(O)cc2F)C(=O)C1=O [Example 13]" metric_name=MIC meas_value="2 to 4 µg/mL"
compound="CCN1CCN(C(=O)NC(C(=O)N[C@H]2Cc3ccc(C=NOCCN)c(C(=O)O)c3OB2O)c2csc(N)n2)C(=O)C1=O (stereo partly drawn) [Example 62]" metric_name=MIC meas_value="> 128 µg/mL"
compound="O=C(O)c1cccc2c1OB(O)[C@@H](NC(=O)C(NC(=O)N1CCN(CCBr)C(=O)C1=O)c1ccc(O)c(F)c1F)C2 (stereo partly drawn) [Example 249]" metric_name=MIC meas_value="8 to 16 µg/mL"
compound="CCN1CCN(C(=O)NC(C(=O)N[C@H]2Cc3cccc(C(=O)O)c3OB2O)c2cccc(CNS(N)(=O)=O)c2)C(=O)C1=O (stereo partly drawn) [Example 107]" metric_name=MIC meas_value="8 to 16 µg/mL"
compound="N=C(N)NCCN1CCN(C(=O)NC(C(=O)N[C@H]2Cc3ccc(F)c(C(=O)O)c3OB2O)c2ncc(O)cc2F)C(=O)C1=O (stereo partly drawn) [Example 51]" metric_name=MIC meas_value="8 to 16 µg/mL"
compound="O=C(O)c1cccc2c1OB(O)[C@@H](NC(=O)[C@H](NC(=O)N1CCN(CC(F)(F)F)C(=O)C1=O)c1c(F)cc(O)cc1F)C2 (single isomer, unassigned) [Example 215]" metric_name=MIC meas_value="32 to 64 µg/mL"
compound="NCCN1CCN(C(=O)N[C@H](C(=O)N[C@H]2Cc3cccc(C(=O)O)c3OB2O)c2c(F)cccc2Cl)C(=O)C1=O (single isomer, unassigned) [Example 206]" metric_name=MIC meas_value="> 128 µg/mL"
compound="NCCN1CCN(C(=O)N[C@H](C(=O)N[C@H]2Cc3cccc(C(=O)O)c3OB2O)c2cc(F)c(O)c(F)c2)C(=O)C1=O (single isomer, unassigned) [Example 158]" metric_name=MIC meas_value="32 to 64 µg/mL"
compound="CCN1CCN(C(=O)NC(C(=O)N[C@H]2Cc3cccc(C(=O)O)c3OB2O)c2cc(F)c(O)cc2F)C(=O)C1=O (stereo partly drawn) [Example 104]" metric_name=MIC meas_value="8 to 16 µg/mL"
compound="CCN1CCN(C(=O)NC(C(=O)N[C@H]2Cc3cccc(C(=O)O)c3OB2O)c2cc(O)ccc2O)C(=O)C1=O (stereo partly drawn) [Example 77]" metric_name=MIC meas_value="> 128 µg/mL"
compound="CCN1CCN(C(=O)NC(C(=O)N[C@H]2Cc3cccc(C(=O)O)c3OB2O)c2cc(Cl)c(C(=O)O)cc2F)C(=O)C1=O (stereo partly drawn) [Example 138]" metric_name=MIC meas_value="32 to 64 µg/mL"
compound="CCN1CCN(C(=O)NC(C(=O)N[C@H]2Cc3ccc(SCc4ccc(O)cc4)c(C(=O)O)c3OB2O)c2csc(N)n2)C(=O)C1=O (stereo partly drawn) [Example 55]" metric_name=MIC meas_value="32 to 64 µg/mL"
compound="CCN1C[C@H](C)N(C(=O)NC(C(=O)N[C@H]2Cc3cccc(C(=O)O)c3OB2O)c2c(F)cc(O)cc2F)C(=O)C1=O (stereo partly drawn) [Example 232]" metric_name=MIC meas_value="8 to 16 µg/mL"
compound="CCN1CCN(C(=O)NC(C(=O)N[C@H]2Cc3cccc(C(=O)O)c3OB2O)c2ccc(C(=O)O)c(O)c2)C(=O)C1=O (stereo partly drawn) [Example 196]" metric_name=MIC meas_value="2 to 4 µg/mL"
compound="NCCN1CCN(C(=O)N[C@@H](C(=O)N[C@H]2Cc3cccc(C(=O)O)c3OB2O)c2c(F)cccc2Cl)C(=O)C1=O (single isomer, unassigned) [Example 205]" metric_name=MIC meas_value="32 to 64 µg/mL"
compound="NCCCN1CCN(C(=O)N[C@@H](C(=O)N[C@H]2Cc3cccc(C(=O)O)c3OB2O)c2cc(F)c(O)c(F)c2F)C(=O)C1=O (single isomer, unassigned) [Example 246]" metric_name=MIC meas_value="8 to 16 µg/mL"
compound="NCCN1CCN(C(=O)NC(C(=O)N[C@H]2Cc3cccc(C(=O)O)c3OB2O)c2c(F)cc(O)cc2Cl)C(=O)C1=O (stereo partly drawn) [Example 94]" metric_name=MIC meas_value="32 to 64 µg/mL"
compound="NCCN1CCN(C(=O)N[C@@H](C(=O)N[C@H]2Cc3cccc(C(=O)O)c3OB2O)c2ccc(O)c(F)c2F)C(=O)C1=O (single isomer, unassigned) [Example 170]" metric_name=MIC meas_value="2 to 4 µg/mL"
compound="CCN1CCN(C(=O)NC(C(=O)N[C@H]2Cc3ccc(SCCN4CCCC4)c(C(=O)O)c3OB2O)c2csc(N)n2)C(=O)C1=O (stereo partly drawn) [Example 64]" metric_name=MIC meas_value="> 128 µg/mL"
compound="NCCCN1CCN(C(=O)NC(C(=O)N[C@H]2Cc3ccc(F)c(C(=O)O)c3OB2O)c2c(F)cc(O)cc2F)C(=O)C1=O (stereo partly drawn) [Example 178]" metric_name=MIC meas_value="8 to 16 µg/mL"
compound="CCN1CCN(C(=O)N[C@H](C(=O)N[C@H]2Cc3cccc(C(=O)O)c3OB2O)c2ccc(C(=O)O)c(F)c2F)C(=O)C1=O (single isomer, unassigned) [Example 139]" metric_name=MIC meas_value="8 to 16 µg/mL"
compound="CCN1CCN(C(=O)NC(C(=O)N[C@H]2Cc3cccc(C(=O)O)c3OB2O)c2cccc(NS(N)(=O)=O)c2)C(=O)C1=O (stereo partly drawn) [Example 98]" metric_name=MIC meas_value="8 to 16 µg/mL"
